Test: Plasma clearance in rat at 0.1 mg/kg, iv and 1 mg/kg, po
Type: ADME, organism-based
ATTRIBUTE_MEASURED: clearance

Lookup: I have this molecule here, `N#Cc1ccc(-c2ccc(S(=O)(=O)Nc3cccc(N)n3)cc2)cc1` , and I need its recorded clearance.
Found: 0.0522 L/h/kg

---

Assay: Permeability across basolateral to apical side in human Caco-2 cells
Format: ADME, cell-based
Conditions: read-out: permeability
ATTRIBUTE_MEASURED: Papp B→A

Lookup: I have this compound here, `CCN(CC)C(=O)Cc1cccc(NS(=O)(=O)c2cccc(Cl)c2C)n1` , and I need its recorded Papp B→A.
Found: 12 ×10⁻⁶ cm/s

Lookup: Now the same for `Cc1cccc(NS(=O)(=O)c2cccc(Cl)c2C)n1`
Found: 46 ×10⁻⁶ cm/s
